Origin of values: patent US20190085323A1

# Assay Target: T1, HER2-ECD (recombinant extracellular domain of human epidermal growth factor receptor 2) (human, UniProt P04626 23-652)
# T1 construct: extracellular domain; Recombinant HER2-ECD coated on ELISA plates
# Protocol: ELISA, IgG1 titrated on immobilized HER2-ECD

{"Binder": "31YCM#5 IgG1 (antibody, V domains shown, also called 3 YCM #5) VH: EVQLVESGGGLVQPGGSLRLSCKASGYTFGGSYMHWVRQAPGKGLEWVARIYPHYGYTYYADSVKGRFTISADTSKNTAYLQMNSLRAEDTAVYYCARGDDHFDYWGQGTLVTVSS VL: DIQMTQSPSSLSASVGDRVTITCKSNQNLLDSHGWTYLHWYQQKPGKAPKLLIYDASNLYSGVPSRFSGSGSGTDFTLTISSLQPEDFATYYCSQSYRLPYTFGQGTKVEIKR", "EC50, ng/mL": 6.3}
{"Binder": "29TYL#10 IgG1 (antibody, V domains shown) VH: EVQLVESGGGLVQPGGSLRLSCKASGYTFTDGSMHWVRQAPGKGLEWVAYINPYFGDTYYADSVKGRFTISADTSKNTAYLQMNSLRAEDTAVYYCARGWIDYWGQGTLVTVSS VL: DIQMTQSPSSLSASVGDRVTITCKSNQNLLLSNGRTFLYWYQQKPGKAPKLLIYGTSYLYSGVPSRFSGSGSGTDFTLTISSLQPEDFATYYCFQANHLPWTFGQGTKVEIKR", "EC50, ng/mL": 3.8}
{"Binder": "30CHS-13 IgG1 (antibody, V domains shown) VH: EVQLVESGGGLVQPGGSLRLSCKASGYTFGHYSMFWVRQAPGKGLEWVASIYPHYGHTYYADSVKGRFTISADTSKNTAYLQMNSLRAEDTAVYYCARGHWLDYWGQGTLVTVSS VL: DIQMTQSPSSLSASVGDRVTITCKSNQNLLDSGNQRTYLNWYQQKPGKAPKLLIYHTSRLYSGVPSRFSGSGSGTDFTLTISSLQPEDFATYYCSQTFRHPGTFGQGTKVEIKR", "EC50, ng/mL": 41}
